I'd appreciate it if you could supply melting point values for the items below.

{"compound": "CC(C)n1cc(-c2nc(C#N)c(N)nc2-c2cccc(F)c2)ccc1=O", "melting point": "211 °C"}
{"compound": "Oc1ccc(C(=C2CCCCCC2)c2ccc(Br)cc2)cc1F", "melting point": "102 to 104 °C"}
{"compound": "Fc1ccc(-c2cc(N3CCN(c4ccc(F)cc4)CC3)nc3c2CCCCCC3)cc1", "melting point": "130 to 131 °C"}
{"compound": "O=C1NCN(c2ccccc2)C12CCN(CC1CCc3ccccc3O1)CC2 (configuration not stated)", "melting point": "192 to 194 °C"}
{"compound": "CCOC(=O)c1c(C)[nH]c2ccc(C(=O)c3c(C)c(OC)c4ccccn34)cc2c1=O", "melting point": "257 °C"}

// input: 4 compounds below; output: melting point for each
1. O=[S@@]1CCC(c2ccccc2)(c2ccccc2)[C@@H]2CNC[C@@H]21 (racemic)
2. CC1OCCN1CCNc1ccc(NCCN2CCOC2C)c2c1C(=O)c1c(O)ccc(O)c1C2=O (configuration not stated)
3. CCOc1ccc(-c2c(Cl)c(CCl)nc3sc4c(c23)CCN(C(=O)OCc2ccccc2)C4)cc1
4. CCn1nc(C)c2c1C(=O)NCC(c1cccc(O)c1)=N2

1: 192 °C; 2: 161 to 168 °C; 3: 159 to 161 °C; 4: 204 °C

// input: 6 compounds below; output: melting point for each
1. Cc1ccc(-c2cc(=O)c(Br)c(C(=O)O)o2)cc1
2. CCOC(=O)c1cc2ccoc2nc1C(=O)OCC
3. COc1cc(C(C)=O)ccc1OC(C)=O
4. COc1ccn(-c2ccc(C3CCN(S(=O)(=O)C(C)(C)C(=O)NO)CC3)cc2C)n1
5. N#CC1=C(N)CCN(C(=O)c2ccccc2)C1
6. CCOC(=O)C1CCN(c2ccc([N+](=O)[O-])c(C=C3NC(=O)NC3=O)c2)CC1

["202 to 204 °C", "66 to 77 °C", "58.7 °C", "172 to 173 °C", "178 to 181 °C", "221 to 223 °C"]

###

I'd appreciate it if you could supply melting point values for the items below.

{"compound": "Cc1cc(-n2cc(-c3ccc(F)cc3F)nc2C)cc2ccc(=O)[nH]c12", "melting point": "262 to 265 °C"}

// input: 8 compounds below; output: melting point for each
1. O=C(CCCCl)NC1c2ccccc2CS(=O)(=O)c2ccccc21 (stereo not drawn)
2. NC(=O)Nc1ccc(OC(F)C(F)(F)F)cc1 (stereo not drawn)
3. Cn1cnc(COc2ccc(-c3cc(-c4c[nH]nc4-c4ccccn4)ccn3)cc2)c1
4. Cc1ccc2ccc(N3C(=O)c4cccnc4C3OC(=O)N3CCN(C)CC3)nc2n1 (stereo not drawn)
5. COC(=O)C(C)(C)OCc1oc(-c2ccc(Cl)cc2)nc1C
6. CC(C)(C)OC(=O)N1CC(CCl)c2c1ccc1ccccc21 (stereo not drawn)
7. O=[N+]([O-])c1cc(Br)ccc1N1CCc2cc(Br)ccc21
8. CCOC(=O)c1ccn2ncc(-c3cccc(Cl)c3)c2n1

["215 to 227 °C", "167 to 168 °C", "104 °C", "226 °C", "88 to 90 °C", "107 to 108 °C", "150 to 152 °C", "126 to 129 °C"]

// input: 3 compounds below; output: melting point for each
1. N#Cc1cnc2c(Br)csc2c1Cl
2. CS(=O)(=O)Oc1cc(OS(C)(=O)=O)cc(OS(C)(=O)=O)c1
3. Brc1ccc(OCCc2c[nH]cn2)cc1

1. 176 to 178 °C
2. 145 to 149 °C
3. 162 to 165 °C

// input: 6 compounds below; output: melting point for each
1. CN1C(=O)C2(COc3cc4c(cc32)OCCO4)c2c(Oc3ccccn3)cccc21 (stereo not drawn)
2. CC(C)(C)c1cc(Cc2cc(C(C)(C)C)cc(C(C)(C)C)c2O)c(O)c(C(C)(C)C)c1
3. COc1cc(COc2nn(Cc3ccccc3)cc2C(=O)O)ccc1OCc1nc(-c2ccco2)oc1C
4. COc1cc2c(c(OC)c1)OC(C(F)(F)F)C(C(=O)O)=C2 (stereo not drawn)
5. CC=NN(C(=O)c1ccccc1)c1ccc(OC)cc1
6. C=CCOc1cc(C)c2ccc(=O)oc2c1

1: 219 to 221 °C; 2: 141 to 142 °C; 3: 167 to 168 °C; 4: 215 to 217 °C; 5: 68 to 70 °C; 6: 83 °C

// input: 8 compounds below; output: melting point for each
1. COc1ccc(-n2c(=O)n(C)c(=O)n(CC(C)(C)C)c2=O)cc1
2. CC(C)c1cc(C(=O)Nc2ccc(C(=O)O)cn2)oc1C(C)C
3. O=C(Nc1nnn(C(F)F)n1)C(c1ccccc1)c1ccccc1
4. Cc1cccc([N+](=O)[O-])c1CO
5. Cc1ccc(CC2CCN(C(=O)C(=O)Nc3ccc4[nH]c(=O)sc4c3)CC2)cc1
6. CCOC(=O)C(=O)Nc1ccc(Cc2ccc(NC(=O)C(=O)OCC)cc2)cc1
7. O=C1c2ccccc2C(=O)N1Cc1noc(CCl)n1
8. CCOC(=O)CNC(=O)CCCCCNC(=O)c1cccc(C(F)(F)F)c1

1. 134 °C
2. 278 to 279 °C
3. 143 to 145 °C
4. 67 to 68 °C
5. 221 to 222 °C
6. 146 to 147 °C
7. 96.5 to 98 °C
8. 102 to 104 °C

###

I'd appreciate it if you could supply melting point values for the items below.

// input: 3 compounds below; output: melting point for each
1. CCOc1c(C(=O)c2cccs2)cnc2c1cnn2Cc1ccco1
2. O=C1OCCN1c1ccc([N+](=O)[O-])c(C(F)(F)F)c1
3. CCOC(=O)/C(=N\OCC1CCCCC1)c1csc(N)n1

1: 85 to 87 °C; 2: 112 to 113 °C; 3: 107 to 108 °C

// input: 3 compounds below; output: melting point for each
1. COC(CNC(=O)CN1C(=O)C(C)=C(C)C1=O)OC
2. COC(=O)[C@@H]1COC(c2ncn3c2CN(C)C(=O)c2sccc2-3)=N1
3. CCCOc1ccc(C2=NN(C(=O)Nc3ccc(C(F)(F)F)cc3)CC2N(CCC)C(=O)OCC(Cl)(Cl)Cl)cc1 (stereo not given)

["99.4 to 99.9 °C", "215 to 217 °C", "162 to 163 °C"]

// input: 4 compounds below; output: melting point for each
1. CCNc1nc(C)c(C(=O)c2ccc(N)c(N)c2)s1
2. CC(=O)NC(=O)c1cccc(-c2noc(-c3ccccc3F)n2)c1
3. COC(=O)/C=C/c1ccc(NC(C)=O)nc1
4. CCCCCCCN1CCCc2cccc(O)c21

1: 185 to 225 °C; 2: 119 to 120 °C; 3: 172 to 200 °C; 4: 33 to 34 °C

###

I'd appreciate it if you could supply melting point values for the items below.

Would you please look over these solved cases?
{"molecule": "O=C(Nc1ccccc1C(=O)NCCc1nccs1)c1ccc(Cl)cc1", "melting point": "156 to 160 °C"}
{"molecule": "CC(C)CCNC(=O)c1ccccc1-c1ccccc1CNS(=O)(=O)c1cccc(F)c1", "melting point": "141 °C"}
{"molecule": "c1ccc2c(-c3cnc(CCC4CCCCN4)s3)c[nH]c2c1 (stereo not given)", "melting point": "155 to 157 °C"}
{"molecule": "COc1cccc(N(CCN2CCC(C(=O)c3ccc(F)cc3)CC2)C(=O)c2cccc([N+](=O)[O-])c2)c1", "melting point": "123 to 125 °C"}

With those in mind, consider the next molecule.
I'd like to know its melting point. The molecule in question is Cn1c(=O)[nH]c2ccc(-c3cccc(Cl)c3)cc21
219 to 220 °C

###

measurement.type: melting point

{"molecule": "CON=Cc1nc(C)n2c1CN=C(c1ccccc1)c1cc(Cl)ccc1-2", "melting point": "193 to 195 °C"}
{"molecule": "COc1ccc(F)cc1C(C)(C)CC(O)(Cc1cccc(-c2cccnc2)c1)C(F)(F)F (stereo not drawn)", "melting point": "148 to 150 °C"}

With those in mind, consider the next molecule.
I'd like to know its melting point. The molecule in question is CCn1nc(C)c2c1C(=O)Nc1ccccc1N2C(=O)CCl
208 to 210 °C

###

measurement.type: melting point

Would you please look over these solved cases?
{"compound": "Cc1cc(C)c2cccc(OCc3c(Cl)ccc(S(=O)(=O)N4CCC[C@H]4C(=O)N4CCCNCC4)c3Cl)c2n1", "readout.value": "65 °C"}
{"compound": "CCN(CC)CCNC(=O)N1CCC(S(=O)(=O)c2ccc(Cl)cc2)C1 (stereo unspecified)", "readout.value": "86 to 87.5 °C"}
{"compound": "CCOc1nc(NCc2ccco2)nc(Nc2ccccc2-c2cccnc2)n1", "readout.value": "90 to 92 °C"}
{"compound": "c1ccc2c(c1)CN(Cc1nc3ccccc3[nH]1)C2", "readout.value": "172 to 174 °C"}
{"compound": "Cc1c(O)cc2c(c1C)N(C=O)CC2", "readout.value": "192 to 193 °C"}
{"compound": "CCN(CC)c1ccc(-c2ccc3c(c2)C=C(C(=O)Nc2ccc(CN(C)C4CCOCC4)cc2)CCN3C)cc1", "readout.value": "178 to 180 °C"}
{"compound": "COC(=O)c1ccc2oc(-c3ccccc3O)cc(=O)c2c1", "readout.value": "290 to 291 °C"}
{"compound": "CCOC(=O)C(C)Oc1ccc(Nc2cnc3cc(Cl)ccc3n2)cc1 (stereo unspecified)", "readout.value": "136 °C"}
{"compound": "O=C1CCc2c(Cl)sc(-c3ccncc3)c21", "readout.value": "163 to 165 °C"}
{"compound": "CC(C)(C(=O)C(Oc1ccc(Cl)cc1Cl)n1cncn1)C(Cl)Cl (stereo unspecified)", "readout.value": "120 to 121 °C"}

With those in mind, consider the next compound.
I'd like to know its melting point. The compound in question is CC(=O)c1c(C)sc(C)c1CC(N)=O
123 to 125 °C
